# credit: the supplement of paper PMC10646978

test system: RAW-Dual (murine macrophage reporter line); assay: NF-kB reporter (SEAP) activity fold change vs agonist alone; higher = enhanced NF-kB activity; details: modulator concentration 10 µM; agonist: MPLA […]
observation type: NF-kB reporter

compound=O=C(NCCN1CCOCC1)c1ccc(Cl)cc1 assay_system="RAW-Dual (murine macrophage reporter line)" observation_type="NF-kB reporter" numeric_result=0.953
compound=COc1cc(NC(=O)COc2ccc(C(C)C)c(C)c2)c(OC)cc1Cl assay_system="RAW-Dual (murine macrophage reporter line)" observation_type="NF-kB reporter" numeric_result=1.71
compound=COc1ccc2oc(=O)c(-c3csc(NC(=O)C=CC(=O)O)n3)cc2c1 assay_system="RAW-Dual (murine macrophage reporter line)" observation_type="NF-kB reporter" numeric_result=0.985
compound=O=C(Oc1ccc(Cl)c2cccnc12)c1cccc(Cl)c1 assay_system="RAW-Dual (murine macrophage reporter line)" observation_type="NF-kB reporter" numeric_result=0.926
compound=Cc1cccc(OCC(=O)Nc2cccc([N+](=O)[O-])c2)c1C assay_system="RAW-Dual (murine macrophage reporter line)" observation_type="NF-kB reporter" numeric_result=1.03
compound=O=C(CSc1ccc(F)cc1)N1CCn2nc3c(c2C1)CCC3 assay_system="RAW-Dual (murine macrophage reporter line)" observation_type="NF-kB reporter" numeric_result=1.05
compound=O=Cc1cn(CCOc2ccc(Cl)cc2)c2ccccc12 assay_system="RAW-Dual (murine macrophage reporter line)" observation_type="NF-kB reporter" numeric_result=1.62
compound=Cn1c(=O)cc(N2CCC[C@@H](N)C2)n(Cc2ccccc2C#N)c1=O assay_system="RAW-Dual (murine macrophage reporter line)" observation_type="NF-kB reporter" numeric_result=2.23
compound=CC(C)OCc1ccc(C(=O)Nc2nnc(C(C)C)s2)o1 assay_system="RAW-Dual (murine macrophage reporter line)" observation_type="NF-kB reporter" numeric_result=0.961
compound=CN(C)CCN(Cc1ccccc1)Cc1cc(Cl)cc(Cl)c1O assay_system="RAW-Dual (murine macrophage reporter line)" observation_type="NF-kB reporter" numeric_result=0.996
compound="COc1ccc(C2CC(=O)c3c(O)cc(O)cc3O2)cc1O (configuration not stated)" assay_system="RAW-Dual (murine macrophage reporter line)" observation_type="NF-kB reporter" numeric_result=1.15
compound="Cc1cn([C@H]2C=C[C@@H](CO)O2)c(=O)[nH]c1=O [Prestw-1279]" assay_system="RAW-Dual (murine macrophage reporter line)" observation_type="NF-kB reporter" numeric_result=0.957
compound=CS(=O)(=O)O.Cc1ccc(NC(=O)c2ccc(CN3CCN(C)CC3)cc2)cc1Nc1nccc(-c2cccnc2)n1 assay_system="RAW-Dual (murine macrophage reporter line)" observation_type="NF-kB reporter" numeric_result=1.89
compound="CS(=O)(=O)N1C2CCC1CC(NC(=O)NC1CCCC1)C2 (configuration not stated)" assay_system="RAW-Dual (murine macrophage reporter line)" observation_type="NF-kB reporter" numeric_result=0.88
compound=O=c1[nH][nH]c(=O)c2c(N=Cc3cc4c(cc3[N+](=O)[O-])OCO4)cccc12 assay_system="RAW-Dual (murine macrophage reporter line)" observation_type="NF-kB reporter" numeric_result=0.961
compound="Cc1ccccc1C(=O)Nc1ccc(C(=O)N2CCCC(N(C)C)c3ccccc32)cc1 (configuration not stated)" assay_system="RAW-Dual (murine macrophage reporter line)" observation_type="NF-kB reporter" numeric_result=0.929
compound=Cn1c(=O)c2c(ncn2CC2OCCO2)n(C)c1=O assay_system="RAW-Dual (murine macrophage reporter line)" observation_type="NF-kB reporter" numeric_result=0.99
compound=O=C(CSC1CCCCC1)Nc1ccc(Br)cc1 assay_system="RAW-Dual (murine macrophage reporter line)" observation_type="NF-kB reporter" numeric_result=1.1
compound=CC1(C)NC(=O)N(c2ccc([N+](=O)[O-])c(C(F)(F)F)c2)C1=O assay_system="RAW-Dual (murine macrophage reporter line)" observation_type="NF-kB reporter" numeric_result=0.897
compound="Clc1ccc(Cn2c(CN3CCCC3)nc3ccccc32)cc1 [Prestw-227]" assay_system="RAW-Dual (murine macrophage reporter line)" observation_type="NF-kB reporter" numeric_result=1.06
compound=O=C1C(O)=C(c2ccc([N+](=O)[O-])cc2)C(=O)c2ccccc21 assay_system="RAW-Dual (murine macrophage reporter line)" observation_type="NF-kB reporter" numeric_result=0.905
compound=CCOc1ccc2oc(-c3ccccc3)c(C(=O)N3CCN(C)CC3)c2c1 assay_system="RAW-Dual (murine macrophage reporter line)" observation_type="NF-kB reporter" numeric_result=1.03

====

tested on: RAW-Dual (murine macrophage reporter line); experiment: NF-kB reporter (SEAP) activity fold change vs agonist alone; higher = enhanced NF-kB activity; conditions: modulator concentration 10 µM; agonist: LPS 0.1 ug/mL
NF-kB reporter values by entry
observation type: NF-kB reporter

compound=CN(C)CCCNc1cc(C(C)(C)C)nc2c(-c3ccccc3)cnn12 numeric_result=0.13
compound="O=C(CS(=O)Cc1ccco1)NC/C=C\\COc1cc(CN2CCCCC2)ccn1 (stereo unspecified)" numeric_result=1.02
compound=Cc1cccc(N(CC(=O)Nc2ccc3c(c2)OCO3)S(C)(=O)=O)c1 numeric_result=0.934
compound="CCOc1ccc(NC(=O)CC2Nc3cccc4cccc(c34)NC2=O)cc1 (stereo unspecified)" numeric_result=1.01
compound="Cc1ccccc1C(OCCN(C)C)c1ccccc1.O=C(O)CC(O)(CC(=O)O)C(=O)O (stereo unspecified)" numeric_result=1.34
compound="CCOC(=O)C1=C(C)NC(=S)NC1c1ccccc1OCc1ccccc1 (stereo unspecified)" numeric_result=1.05
compound=CCOc1ccccc1NC(=O)Nc1ccc2c(c1)CC(=O)N2CC numeric_result=0.945
compound="COC(CNC(=O)c1cccc(Br)c1)c1ccccc1C (stereo unspecified)" numeric_result=0.999
compound=CC[C@H](C)C(=O)O[C@H]1CCC=C2C=C[C@H](C)[C@H](CC[C@@H]3C[C@@H](O)CC(=O)O3)[C@H]21 numeric_result=1.57
compound=CCOC(=O)C(=NNc1ccccc1[N+](=O)[O-])C(=O)CSc1ccc(C)cc1 numeric_result=0.789
compound=Cn1cnc2cc(NCc3ccc(Br)cc3)ccc21 numeric_result=0.762

====

tested on: RAW-Dual (murine macrophage reporter line); experiment: IRF reporter (Lucia luciferase) activity fold change vs agonist alone; higher = enhanced IRF activity; details: modulator concentration 10 µM; agonist: LPS 0.1 ug/mL
IRF reporter values by entry
observation type: IRF reporter

compound="CCOC(=O)C1=CC2(CC)CCCN3CCc4c(n1c1ccccc41)C32 (configuration not stated)" numeric_result=1.3
compound="O=C1CC(c2ccc(O)cc2)Oc2cc(O)cc(O)c21 (configuration not stated)" numeric_result=1.09
compound=CN1[C@@H]2CC[C@H]1C[C@@H](OC(c1ccccc1)c1ccccc1)C2.CS(=O)(=O)O numeric_result=0.934
compound=S=C(NC12CC3CC(CC(C3)C1)C2)N1CCOCC1 numeric_result=1.07
compound=Cc1ccn2c(-c3csc(NCc4ccccc4)n3)c(C)nc2c1 numeric_result=1.38
compound=O=S(=O)(c1cccc2ccccc12)n1nnc2ccccc21 numeric_result=1.04
compound=O=C(NN=Cc1ccc([N+](=O)[O-])s1)c1ccc(Br)cc1 numeric_result=1.18
compound="CC(NC(=O)C(=O)Nc1ccc(F)cc1)c1ccccc1 (configuration not stated)" numeric_result=1.22
compound=Clc1cnc(NC2CCN(c3ncnc4c3CCCC4)CC2)nc1 numeric_result=1.16
compound=COc1ccc2cc(Br)ccc2c1CC(=O)O numeric_result=1.29
compound=O=C(c1cccs1)c1nc2c(n1O)CCCCC2 numeric_result=1.17
compound=Cc1nc(-c2ccc(OCC(C)C)c(C#N)c2)sc1C(=O)O numeric_result=0.973

====

tested on: RAW-Dual (murine macrophage reporter line); assay: IRF reporter (Lucia luciferase) activity fold change vs agonist alone; higher = enhanced IRF activity; details: modulator concentration 10 µM; agonist: LPS 0.1 ug/mL
Assign class by IRF reporter: not lower than 1 means 1 (yes); lower than 1 means 0 (no).

molecule=O=C(NCCCOc1cccc2cccnc12)c1cccnc1 assay_system="RAW-Dual (murine macrophage reporter line)" qualitative_label="1 (yes)"
molecule=CN(C)c1ccc(C=NN2C(=O)c3cccc4cccc(c34)C2=O)cc1 assay_system="RAW-Dual (murine macrophage reporter line)" qualitative_label="1 (yes)"
molecule=NC(CO)(CO)CO assay_system="RAW-Dual (murine macrophage reporter line)" qualitative_label="1 (yes)"
molecule=CCN1C(=O)C(=C2SC(N3CCOCC3)=NC2=O)c2ccccc21 assay_system="RAW-Dual (murine macrophage reporter line)" qualitative_label="1 (yes)"
molecule=Cc1ccc(S(=O)(=O)Nc2c3ccccc3c(O)c3c4c(oc23)CC(C)(C)CC4=O)cc1 assay_system="RAW-Dual (murine macrophage reporter line)" qualitative_label="1 (yes)"
molecule=CCc1cnn2c(NCc3ccc[n+]([O-])c3)cc(N3CCCC[C@H]3CCO)nc12 assay_system="RAW-Dual (murine macrophage reporter line)" qualitative_label="0 (no)"
molecule=O=C1c2ccccc2C(=O)c2c1ccc(O)c2O assay_system="RAW-Dual (murine macrophage reporter line)" qualitative_label="0 (no)"
molecule="CCN(CC)CCOC(=O)C(c1ccccc1)c1ccccc1 [Prestw-75]" assay_system="RAW-Dual (murine macrophage reporter line)" qualitative_label="0 (no)"
molecule=Cc1cc2nc3sc(=Cc4ccc(F)cc4)c(=O)n3c2cc1C assay_system="RAW-Dual (murine macrophage reporter line)" qualitative_label="1 (yes)"
molecule=O=C(NN=Cc1cccc(Cl)c1Cl)c1cc(O)cc(O)c1 assay_system="RAW-Dual (murine macrophage reporter line)" qualitative_label="1 (yes)"
molecule=CC(C)=CCCC(C)=CC=NNC(=S)Nc1ccc(C)cc1 assay_system="RAW-Dual (murine macrophage reporter line)" qualitative_label="1 (yes)"
molecule=O=S(=O)(Cc1ccccc1)c1nc2ccccc2n1Cc1ccc(Cl)cc1 assay_system="RAW-Dual (murine macrophage reporter line)" qualitative_label="1 (yes)"
molecule=Cc1ccc(COc2ccc3c(C)c(C)c(=O)oc3c2C)cc1 assay_system="RAW-Dual (murine macrophage reporter line)" qualitative_label="1 (yes)"
molecule="O=C(CC1Sc2ccccc2NC1=O)Nc1ccccc1 (stereo unspecified)" assay_system="RAW-Dual (murine macrophage reporter line)" qualitative_label="1 (yes)"
molecule=Cc1ccc(S(=O)(=O)c2ccc(O)c(O)c2)cc1 assay_system="RAW-Dual (murine macrophage reporter line)" qualitative_label="1 (yes)"
molecule=COc1ccc(-c2nc3c4cnn(-c5ccc(C)cc5C)c4ncn3n2)c(O)c1 assay_system="RAW-Dual (murine macrophage reporter line)" qualitative_label="1 (yes)"
molecule=CC(C)c1ccc(N(CC(=O)NCCSCc2ccc(Cl)cc2)S(C)(=O)=O)cc1 assay_system="RAW-Dual (murine macrophage reporter line)" qualitative_label="1 (yes)"
molecule=O=C(NC1CCN(c2ncnc3c2CCCC3)CC1)c1ccc(=O)[nH]c1 assay_system="RAW-Dual (murine macrophage reporter line)" qualitative_label="1 (yes)"
molecule="NC(=O)C1CCCc2c1[nH]c1ccc(Cl)cc21 (stereo unspecified)" assay_system="RAW-Dual (murine macrophage reporter line)" qualitative_label="1 (yes)"
molecule="Clc1ccc(Nc2nnc(Cc3ccncc3)c3ccccc23)cc1 [Prestw-1358]" assay_system="RAW-Dual (murine macrophage reporter line)" qualitative_label="1 (yes)"
molecule=Cl.Cl.O=C(O)COCCN1CCN([C@H](c2ccccc2)c2ccc(Cl)cc2)CC1 assay_system="RAW-Dual (murine macrophage reporter line)" qualitative_label="0 (no)"
molecule=COC(=O)C1=C(C)N(C)C(C)=C(C(=O)OC)C1c1cccc(C(F)(F)F)c1 assay_system="RAW-Dual (murine macrophage reporter line)" qualitative_label="1 (yes)"
molecule=O=C(CCC(=O)OCC(=O)c1cccs1)Nc1ccc(Oc2ccccc2)cc1 assay_system="RAW-Dual (murine macrophage reporter line)" qualitative_label="1 (yes)"
molecule=O=C(CCCn1nc(-c2ccc(F)cc2)ccc1=O)Nc1cc(Cl)ccc1Cl assay_system="RAW-Dual (murine macrophage reporter line)" qualitative_label="1 (yes)"
molecule="O=C1C(CCC(O)c2ccc(F)cc2)C(c2ccc(O)cc2)N1c1ccc(F)cc1 (stereo unspecified)" assay_system="RAW-Dual (murine macrophage reporter line)" qualitative_label="1 (yes)"
molecule=CCC(=O)c1c(O)cc(O)cc1O assay_system="RAW-Dual (murine macrophage reporter line)" qualitative_label="0 (no)"
molecule="NC(=O)CCC(N)C(=O)O (stereo unspecified)" assay_system="RAW-Dual (murine macrophage reporter line)" qualitative_label="1 (yes)"
molecule=O=C(C=Cc1ccc2c(c1)OCO2)NCc1ccccn1 assay_system="RAW-Dual (murine macrophage reporter line)" qualitative_label="1 (yes)"
molecule=O=C(NCCN1CCOCC1)c1ccccc1Br assay_system="RAW-Dual (murine macrophage reporter line)" qualitative_label="1 (yes)"
molecule=CC(O)C(=O)O.CN1CCN(c2ccc3nc(-c4c(N)c5c(F)cccc5[nH]c4=O)[nH]c3c2)CC1 assay_system="RAW-Dual (murine macrophage reporter line)" qualitative_label="0 (no)"
molecule="CCOC(=O)c1c(N2C(=O)C3C4C=CC(O4)C3C2=O)sc2c1CCCC2 (stereo unspecified)" assay_system="RAW-Dual (murine macrophage reporter line)" qualitative_label="0 (no)"
molecule=Cc1cccc(Oc2ccc(NC(=O)c3ccco3)cc2)c1 assay_system="RAW-Dual (murine macrophage reporter line)" qualitative_label="1 (yes)"
molecule="CCC1(O)C(=O)OCc2c1cc1n(c2=O)Cc2cc3cc(O)ccc3nc2-1 (stereo unspecified)" assay_system="RAW-Dual (murine macrophage reporter line)" qualitative_label="1 (yes)"
molecule=O=C(Oc1ccc(Cl)c2cccnc12)c1cccc(Cl)c1 assay_system="RAW-Dual (murine macrophage reporter line)" qualitative_label="1 (yes)"
molecule=CCOC(=O)c1c(C)nn(C2CCCCC2)c1N assay_system="RAW-Dual (murine macrophage reporter line)" qualitative_label="1 (yes)"
molecule=Cc1cc2c(cc1S(N)(=O)=O)S(=O)(=O)CCC2 assay_system="RAW-Dual (murine macrophage reporter line)" qualitative_label="0 (no)"
molecule=Cn1ncc(Cl)c1-c1cc(C(=O)N[C@H](CN)Cc2ccc(F)c(F)c2)oc1Cl assay_system="RAW-Dual (murine macrophage reporter line)" qualitative_label="0 (no)"
molecule="COc1cc(OC)c(NC(=O)C2CCCN(c3ccc(-c4ccc(C)c(C)c4)nn3)C2)cc1Cl (stereo unspecified)" assay_system="RAW-Dual (murine macrophage reporter line)" qualitative_label="1 (yes)"
molecule=COCCN(CCOC)C(=O)Cc1csc2nc(-c3ccc(F)cc3)cn12 assay_system="RAW-Dual (murine macrophage reporter line)" qualitative_label="1 (yes)"
molecule="COc1ccccc1OCC(O)COC(N)=O (stereo unspecified)" assay_system="RAW-Dual (murine macrophage reporter line)" qualitative_label="1 (yes)"
molecule=c1ccc(CCn2c(COc3ccccc3)nc3ccccc32)cc1 assay_system="RAW-Dual (murine macrophage reporter line)" qualitative_label="1 (yes)"
molecule="Nc1c2c(nc3ccccc13)CCCC2O (stereo unspecified) [Prestw-448]" assay_system="RAW-Dual (murine macrophage reporter line)" qualitative_label="0 (no)"
molecule=O=C(CCC(=O)NN=Cc1ccc(O)cc1O)NN=Cc1ccc(O)cc1O assay_system="RAW-Dual (murine macrophage reporter line)" qualitative_label="1 (yes)"
